Method Notes: Second order oxidation rate constant determined by using Ferricyanide
Type: ADME
Label TRUE for high-side Ko (at or above 10 M⁻¹ s⁻¹) and FALSE for low-side Ko (below it).

Example cases with answers are listed next.
CN1C=CCC(C(=O)NCCOC(=O)C2N3C(=O)[C@@H](NC(=O)Cc4ccccc4)[C@H]3SC2(C)C)=C1 (stereo not given in full) : TRUE
CN1C=CCC(C(=O)NCC(OC(=O)C2N3C(=O)[C@@H](NC(=O)Cc4ccccc4)[C@H]3SC2(C)C)c2ccccc2)=C1 (stereo not given in full) : TRUE
CN1C=CCC(C(=O)OCCOC(=O)C2N3C(=O)[C@@H](NC(=O)Cc4ccccc4)[C@H]3SC2(C)C)=C1 (stereo not given in full) : FALSE
CC(CNC(=O)C1=CN(C)C=CC1)OC(=O)C1N2C(=O)[C@@H](NC(=O)Cc3ccccc3)[C@H]2SC1(C)C (stereo not given in full) : TRUE

For the next question, use this molecule.
Is the recorded value of Ko equal to or greater than 10 M⁻¹ s⁻¹ for this molecule? CN1C=CCC(C(=O)OCOC(=O)C2N3C(=O)[C@@H](NC(=O)Cc4ccccc4)[C@H]3SC2(C)C)=C1 (stereo not given in full)
FALSE

###

As shown below, each of these compounds has a reported half-life value.
Method Notes: Half life of compound when water is added (0.15u) in pH 7.4 phosphate buffer (0.05 M) at 37 degree C
Assay type: ADME
Numeric only. Scale: h

CN1C=CCC(C(=O)OCOC(=O)C2N3C(=O)[C@@H](NC(=O)Cc4ccccc4)[C@H]3SC2(C)C)=C1 (stereo partly specified) : 2.26
CC(CNC(=O)c1ccc[n+](C)c1)OC(=O)C1N2C(=O)[C@@H](NC(=O)Cc3ccccc3)[C@H]2SC1(C)C.[I-] (stereo partly specified) : 6.06
CN1C=CCC(C(=O)NCCOC(=O)C2N3C(=O)[C@@H](NC(=O)Cc4ccccc4)[C@H]3SC2(C)C)=C1 (stereo partly specified) : 2.47
C[n+]1cccc(C(=O)NCCOC(=O)C2N3C(=O)[C@@H](NC(=O)Cc4ccccc4)[C@H]3SC2(C)C)c1.[I-] (stereo partly specified) : 3.26
C[n+]1cc(C(=O)NCCOC(=O)C2N3C(=O)[C@@H](NC(=O)Cc4ccccc4)[C@H]3SC2(C)C)c2ccccc2c1.[I-] (stereo partly specified) : 6.29

Respond only with half-life recorded for CN1C=CCC(C(=O)OCCOC(=O)C2N3C(=O)[C@@H](NC(=O)Cc4ccccc4)[C@H]3SC2(C)C)=C1 (stereo partly specified)
7.38
